Reported kon values are given for each entry in this list.
# test.target: B7-H4 purified monomeric recombinant human protein (Homo sapiens, UniProt Q7Z7D3)
# Sequence (Q7Z7D3 25-259): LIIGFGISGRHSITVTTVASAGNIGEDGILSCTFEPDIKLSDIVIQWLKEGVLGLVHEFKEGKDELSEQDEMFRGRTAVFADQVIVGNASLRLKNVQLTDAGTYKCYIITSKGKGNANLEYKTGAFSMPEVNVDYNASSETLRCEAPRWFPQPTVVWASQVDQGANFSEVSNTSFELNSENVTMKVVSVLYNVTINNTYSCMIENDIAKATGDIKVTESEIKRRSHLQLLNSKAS
# method.notes: SPR
Answer with a number only, understood to be in M⁻¹ s⁻¹.

B06 (scFv, V domains shown) VH: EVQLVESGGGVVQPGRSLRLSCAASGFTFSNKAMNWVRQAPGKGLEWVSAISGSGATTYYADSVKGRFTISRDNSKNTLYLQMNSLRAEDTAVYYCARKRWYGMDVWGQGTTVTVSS VL: SYELTQPPSVSVAPGKTARITCGGNNIGVKAVHWYQQKPGQAPVLVVYDDSDRPSGIPERFSGSNSGNTATLTISRVEAGDEADYYCQVWDRGMIFGTGTKLTVL = 170000
A11 (scFv, V domains shown) VH: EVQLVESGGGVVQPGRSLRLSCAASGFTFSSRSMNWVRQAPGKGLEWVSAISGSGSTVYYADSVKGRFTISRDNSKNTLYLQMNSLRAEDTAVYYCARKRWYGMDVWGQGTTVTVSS VL: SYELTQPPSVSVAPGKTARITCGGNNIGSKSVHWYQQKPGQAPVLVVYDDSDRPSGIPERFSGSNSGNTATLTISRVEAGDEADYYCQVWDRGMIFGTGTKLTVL = 190000

Query: Look at this binder and give its reported kon. A01 (scFv, V domains shown) VH: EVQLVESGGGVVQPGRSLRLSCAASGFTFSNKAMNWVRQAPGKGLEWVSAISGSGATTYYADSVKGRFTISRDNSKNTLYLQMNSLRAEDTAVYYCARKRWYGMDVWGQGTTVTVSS VL: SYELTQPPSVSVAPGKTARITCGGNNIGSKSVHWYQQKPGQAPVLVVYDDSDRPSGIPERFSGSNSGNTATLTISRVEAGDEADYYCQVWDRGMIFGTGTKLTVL
Result: 170000

Query: Further, for A12 (scFv, V domains shown) VH: EVQLVESGGGVVQPGRSLRLSCAASGFTFDNRAMNWVRQAPGKGLEWVSAISSSGSTMYYADSVKGRFTISRDNSKNTLYLQMNSLRAEDTAVYYCARKRWYGMDVWGQGTTVTVSS VL: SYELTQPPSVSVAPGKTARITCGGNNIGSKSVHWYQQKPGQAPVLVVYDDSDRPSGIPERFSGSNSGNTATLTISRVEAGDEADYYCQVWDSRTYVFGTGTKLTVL ?
Result: 230000

Query: Further, for parental antibody against B7-H4, scFv-Fc (scFv, V domains shown) VH: EVQLVESGGGVVQPGRSLRLSCAASGFTFSSYSMNWVRQAPGKGLEWVSAISGSGGSTYYADSVKGRFTISRDNSKNTLYLQMNSLRAEDTAVYYCARKRWYGMDVWGQGTTVTVSS VL: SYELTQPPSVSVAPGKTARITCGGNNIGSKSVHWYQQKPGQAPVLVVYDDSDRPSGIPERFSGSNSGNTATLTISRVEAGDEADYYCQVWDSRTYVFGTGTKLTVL ?
Result: 450000
